Assay: Human HepG2 cell viability assay in 384 well format
Assay type: toxicity, cell-based
Design: dose 125 nL, time 70.5 hour; concentration not given beside the values
Conditions: HepG2 cells, read-out: Inhibition
Overview of recorded cytotoxicity at 70.5 h for various compounds
Measured Property: cytotoxicity at 70.5 h (%)

Compound: Cc1nc(N2CCCC2)nc2c1CCN(C(=O)CC1CC1)CC2
Unit: %
Value Observed: -8.4
//
Compound: CC(C)CCN1C(=O)c2ccc(C(=O)NCCc3c[nH]cn3)cc2C1=O
Unit: %
Value Observed: -4.63
//
Compound: CN(C)CCN1CCCC12CCN(C(=O)c1cccn1C)CC2
Unit: %
Value Observed: -15.1
//
Compound: Cc1nccc(CNC(=O)NCCOc2ccc(F)c(F)c2)n1
Unit: %
Value Observed: -2.22
//
Compound: COCC(=O)N1CCCC(COc2ccccc2C)C1 (stereo unspecified)
Unit: %
Value Observed: 12.8
//
Compound: CCc1noc(C(C)N2CCN(CCc3ccncc3)CC2)n1 (stereo unspecified)
Unit: %
Value Observed: -5.36
//
Compound: CN(C)c1cc(C(=O)N2CCCCC2Cn2cccn2)ccn1 (stereo unspecified)
Unit: %
Value Observed: -1.9
//
Compound: CCOC(=O)c1n[nH]cc1-c1cncn1CCn1nc(C)c(Cl)c1C
Unit: %
Value Observed: -5.26
//
Compound: CNC(=O)[C@@H]1C[C@@H]2CCN(Cc3ccoc3)C[C@H]2O1
Unit: %
Value Observed: -6.85
//
Compound: CC(=O)N1CCC(N2CCOC[C@H]2c2nc(C(C)(C)C)c[nH]2)CC1
Unit: %
Value Observed: -2.09
//
Compound: CC(NC(=O)Nc1nccs1)c1cccnc1 (stereo unspecified)
Unit: %
Value Observed: -2.43
//
Compound: COC[C@@]12CC[C@@H](N3CCOCC3)C[C@H]1CCN(c1ncccc1F)C2
Unit: %
Value Observed: -6.47
//
Compound: Cc1noc([C@@]23CCO[C@@H]2CCN(CC2CCOCC2)C3)n1
Unit: %
Value Observed: -5.71
//
Compound: Cc1ccc(C(=O)Nc2cc(C(C)C)n[nH]2)cn1
Unit: %
Value Observed: 31.4
//
Compound: CCc1ccccc1-n1cc(O)c(C(=O)N2CCCCC2)n1
Unit: %
Value Observed: -4.48
//
Compound: CCOc1ccccc1C(=O)N1CCCC(c2nccn2CCOC)C1 (stereo unspecified)
Unit: %
Value Observed: 10.7

meta.source: ChEMBL document CHEMBL3507680
